molecular target: [125I]-ICYP specific binding site (SMBP, SM-11044 binding protein) in rat colon smooth muscle membranes (Rattus norvegicus, UniProt A0A8I6A822); construct: Membranes from colon smooth muscles were prepared as essentially described by Ek et al., 1986; from tissue; test: [125I]-ICYP saturation and competition binding to rat colon membranes (Example 2)
Sequence (A0A8I6A822 27-587): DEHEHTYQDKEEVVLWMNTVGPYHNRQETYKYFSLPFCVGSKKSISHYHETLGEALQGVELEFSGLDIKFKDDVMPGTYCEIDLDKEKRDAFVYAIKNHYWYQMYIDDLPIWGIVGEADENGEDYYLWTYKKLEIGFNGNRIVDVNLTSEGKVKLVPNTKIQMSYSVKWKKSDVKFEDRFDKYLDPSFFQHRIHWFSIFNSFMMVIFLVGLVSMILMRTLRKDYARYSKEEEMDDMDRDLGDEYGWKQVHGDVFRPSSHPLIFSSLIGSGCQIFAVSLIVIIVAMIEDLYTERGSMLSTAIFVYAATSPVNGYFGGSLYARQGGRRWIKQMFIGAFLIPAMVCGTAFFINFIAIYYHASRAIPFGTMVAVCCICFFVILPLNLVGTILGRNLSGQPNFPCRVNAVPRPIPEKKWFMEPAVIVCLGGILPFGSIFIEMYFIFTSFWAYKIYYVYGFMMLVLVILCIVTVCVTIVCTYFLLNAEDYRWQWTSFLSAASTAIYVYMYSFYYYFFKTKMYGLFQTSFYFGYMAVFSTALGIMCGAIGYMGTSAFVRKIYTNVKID
PROPERTY_NAME: pKi
To interpret pKi, take it as minus log10 of a concentration measured in moles per litre.

query: Which measured pKi value corresponds to CC(C)(C)NCC(O)COc1cccc2[nH]c(C#N)cc12 (racemic) [(±)-cyanopindolol, cyanopindolol] ?
result: 6.96

###

Molecular target: [125I]-ICYP specific binding site (SMBP, SM-11044 binding protein) in rat colon smooth muscle membranes (Rattus norvegicus)
Construct: Membranes from colon smooth muscles were prepared as essentially described by Ek et al., 1986; from tissue
Experiment: [125I]-ICYP saturation and competition binding to rat colon membranes (Example 2)
Details: 1 nM [125I]-ICYP; 10 μM 5-HT, 10 μM phentolamine and 20 μM propranolol
Procedure: Incubations were carried out at 37° C. for 30 min in a shaking water-bath incubator and terminated by addition of 4 ml of ice-cold Tris-saline followed by rapid filtration under vacuum on Whatman GF/B filter presoaked in Tris-saline containing 0.1% polyethyleneimine (pH 7.4). The filters were washed three times with 4 ml of ice-cold Tris-saline, transferred to plastic tubes and counted in a γ-counter. Hill coefficient was calculated by linear regression using saturation experiment data. […]
Label class 1 when Pseudo-Hill coefficient < 0.9; otherwise class 0.

                                   compound  assigned_category
0  CCOC(=O)COc1ccc2c(c1)C[C@@H](NC[C@H](O)c1cccc(Cl)c1)CC2 (racemic) [SR-58611A]            class 0
1  CC(C)(C)NCC(O)COc1cccc2[nH]c(C#N)cc12 (racemic) [(±)-cyanopindolol, cyanopindolol]            class 0

query: Is it true that Pseudo-Hill coefficient reported for COC(=O)COc1ccc(CC(C)NCC(O)c2cccc(Cl)c2)cc1 (centres unmarked) [BRL-35135A] is less than 0.9?
result: class 1

query: Also check COC(=O)COc1ccc(OCCNCC(O)COc2ccccc2)cc1 (racemic) [ICI-198157]
result: class 0

query: Also check C=CCc1ccccc1OCC(O)CNC(C)C (racemic) [(±)-alprenolol, alprenolol]
result: class 1

query: Also check O=C([C@@H](NCCCc1ccc(F)cc1)[C@@H](O)c1ccc(O)c(O)c1)N1CCCC1 (racemic) [SM-14010]
result: class 1

query: Also check CC(C)NCC(O)COc1cccc2[nH]c3ccccc3c12 (racemic) [(±)-carazolol, carazolol]
result: class 1

query: Also check Cc1ccc(Cl)c(OCC(O)CNC(C)(C)C)c1 (racemic) [(±)-bupranolol, bupranolol]
result: class 0

query: Also check O=C([C@@H](NCCCc1ccc(F)cc1)[C@H](O)c1ccc(O)c(O)c1)N1CCCC1 (racemic) [SM-14011]
result: class 0
